system: SK-MEL-5; assay: Growth inhibition of human SK-MEL-5 cells at 10^-5 M incubated for 48 hrs by sulforhodamine B assay; assay type: functional; settings: SK-MEL-5, 48 h, read-out: GI
# inhibition of growth at 10 µM per record follows
Supply the numeric figure in %, leaving out any unit text.

// field: inhibition of growth at 10 µM; key: O=C1CC(=O)N(C2=Nc3c(sc4ccc(Cl)cc34)C(c3cccc([N+](=O)[O-])c3)N2)N1 (stereo unspecified) ; value = 5.38

// field: inhibition of growth at 10 µM; key: O=[N+]([O-])c1cccc(C2NC(N3CCOCC3)=Nc3c2sc2ccc(Cl)cc32)c1 (stereo unspecified) ; value = 4.38

// field: inhibition of growth at 10 µM; key: CCOC(=O)CSC1=Nc2c(sc3ccc(Cl)cc23)C(c2cccc([N+](=O)[O-])c2)N1 (stereo unspecified) ; value = 3.95

// field: inhibition of growth at 10 µM; key: O=C1/C(=C\c2cccc(Br)c2)Sc2ccc(Cl)cc21 ; value = 1.63

// field: inhibition of growth at 10 µM; key: O=[N+]([O-])c1cccc(C2c3sc4ccc(Cl)cc4c3N=C3NN=CN32)c1 (stereo unspecified) ; value = 5.85

// field: inhibition of growth at 10 µM; key: N=C1Nc2c(sc3ccc(Cl)cc23)C(c2ccccc2O)N1 (stereo unspecified) ; value = 2.66

// field: inhibition of growth at 10 µM; key: O=[N+]([O-])c1cccc(C2c3sc4ccc(Cl)cc4c3N=C3NN=NN32)c1 (stereo unspecified) ; value = -10.9

// field: inhibition of growth at 10 µM; key: O=C1Nc2c(sc3ccc(Cl)cc23)C(c2ccccc2O)N1 (stereo unspecified) ; value = 4.49

// field: inhibition of growth at 10 µM; key: N#Cc1cnn(C2=Nc3c(sc4ccc(Cl)cc34)C(c3cccc([N+](=O)[O-])c3)N2)c1N (stereo unspecified) ; value = 4.88

// field: inhibition of growth at 10 µM; key: O=C1SC2=Nc3c(sc4ccc(Cl)cc34)C(c3ccc4ccccc4c3)N2C1=O (stereo unspecified) ; value = 5.6

// field: inhibition of growth at 10 µM; key: NNC1=Nc2c(sc3ccc(Cl)cc23)C(c2cccc([N+](=O)[O-])c2)N1 (stereo unspecified) ; value = 3.86

###

# inhibition of growth at 10 µM per record follows
system: MDA-MB-435; experiment: Growth inhibition of human MDA-MB-435 cells at 10^-5 M incubated for 48 hrs by sulforhodamine B assay; format: functional; details: MDA-MB-435, 48 h, read-out: GI
Supply the numeric figure in %, leaving out any unit text.

The cases that follow already have their inhibition of growth at 10 µM on record.
compound	inhibition of growth at 10 µM (%)
Cc1cc(C)n(C2=Nc3c(sc4ccc(Cl)cc34)C(c3cccc([N+](=O)[O-])c3)N2)n1 (stereo not drawn)	-3.52
NNC1=Nc2c(sc3ccc(Cl)cc23)C(c2cccc([N+](=O)[O-])c2)N1 (stereo not drawn)	-7.56
O=[N+]([O-])c1cccc(C2c3sc4ccc(Cl)cc4c3N=C3NN=CN32)c1 (stereo not drawn)	-17.5

// field: inhibition of growth at 10 µM; key: N=C1Nc2c(sc3ccc(Cl)cc23)C(c2ccccc2O)N1 (stereo not drawn) ; value = 2

// field: inhibition of growth at 10 µM; key: N=C1Nc2c(sc3ccc(Cl)cc23)C(c2cccc(Br)c2)N1 (stereo not drawn) ; value = 1.88

// field: inhibition of growth at 10 µM; key: O=C1/C(=C\c2ccccc2O)Sc2ccc(Cl)cc21 ; value = -5.13

// field: inhibition of growth at 10 µM; key: O=C1CC(=O)N(C2=Nc3c(sc4ccc(Cl)cc34)C(c3cccc([N+](=O)[O-])c3)N2)N1 (stereo not drawn) ; value = -10.2

// field: inhibition of growth at 10 µM; key: O=C1CSC2=Nc3c(sc4ccc(Cl)cc34)C(c3ccc4ccccc4c3)N12 (stereo not drawn) ; value = -5.65

// field: inhibition of growth at 10 µM; key: O=C1/C(=C\c2cccc(Br)c2)Sc2ccc(Cl)cc21 ; value = -14

// field: inhibition of growth at 10 µM; key: O=[N+]([O-])c1cccc(C2NC(=S)Nc3c2sc2ccc(Cl)cc32)c1 (stereo not drawn) ; value = -3.92

// field: inhibition of growth at 10 µM; key: O=[N+]([O-])c1cccc(C2c3sc4ccc(Cl)cc4c3N=C3NN=NN32)c1 (stereo not drawn) ; value = 2.65

// field: inhibition of growth at 10 µM; key: O=C1Nc2c(sc3ccc(Cl)cc23)C(c2ccc3ccccc3c2)N1 (stereo not drawn) ; value = -8.72

// field: inhibition of growth at 10 µM; key: O=C1Nc2c(sc3ccc(Cl)cc23)C(c2cccc(Br)c2)N1 (stereo not drawn) ; value = -5.37

// field: inhibition of growth at 10 µM; key: S=C1Nc2c(sc3ccc(Cl)cc23)C(c2ccc3ccccc3c2)N1 (stereo not drawn) ; value = -2.5

// field: inhibition of growth at 10 µM; key: O=[N+]([O-])c1cccc(C2c3sc4ccc(Cl)cc4c3N=C3NN=C(c4cccc(F)c4)N32)c1 (stereo not drawn) ; value = -11.2

// field: inhibition of growth at 10 µM; key: CCOC(=O)CSC1=Nc2c(sc3ccc(Cl)cc23)C(c2cccc([N+](=O)[O-])c2)N1 (stereo not drawn) ; value = -10.6

// field: inhibition of growth at 10 µM; key: N=C1Nc2c(sc3ccc(Cl)cc23)C(c2cccc([N+](=O)[O-])c2)N1 (stereo not drawn) ; value = -4.98

// field: inhibition of growth at 10 µM; key: Oc1ccccc1C1NC(=S)Nc2c1sc1ccc(Cl)cc21 (stereo not drawn) ; value = -10.2

// field: inhibition of growth at 10 µM; key: S=C1Nc2c(sc3ccc(Cl)cc23)C(c2cccc(Br)c2)N1 (stereo not drawn) ; value = -2.42

// field: inhibition of growth at 10 µM; key: O=C1Nc2c(sc3ccc(Cl)cc23)C(c2ccccc2O)N1 (stereo not drawn) ; value = -3.03

// field: inhibition of growth at 10 µM; key: N#Cc1cnn(C2=Nc3c(sc4ccc(Cl)cc34)C(c3cccc([N+](=O)[O-])c3)N2)c1N (stereo not drawn) ; value = -7.15

// field: inhibition of growth at 10 µM; key: O=[N+]([O-])c1cccc(C2NC(N3CCOCC3)=Nc3c2sc2ccc(Cl)cc32)c1 (stereo not drawn) ; value = -6.59

// field: inhibition of growth at 10 µM; key: NC(=O)CSC1=Nc2c(sc3ccc(Cl)cc23)C(c2cccc([N+](=O)[O-])c2)N1 (stereo not drawn) ; value = -11.3
